IC50 data for Vascular endothelial growth factor receptor 2 (Homo sapiens) follow.
METRIC: IC50

[[record]]
compound = "N[C@@H](CCCCN=CC1C(=O)Nc2ccc(Br)cc21)C(=O)O (some centres not stated)"
result = "> 10 µM"

[[record]]
compound = "N[C@@H](CCCCN=CC1C(=O)Nc2ccccc21)C(=O)O (some centres not stated)"
result = "> 10 µM"


====

pIC50: −log10 of the molar value.
pIC50 data for Proto-oncogene tyrosine-protein kinase receptor Ret (Homo sapiens) follow.
METRIC: pIC50

[[record]]
molecule = "N[C@@H](CCCN=CC1C(=O)Nc2ccccc21)C(=O)O (some centres not stated)"
result = "< 5.00"

[[record]]
molecule = "N[C@@H](CCCCN=CC1C(=O)Nc2ccccc21)C(=O)O (some centres not stated)"
result = "< 5.00"


====

- ASSAYED_SYSTEM: Tyrosine-protein kinase ABL1 (Homo sapiens, UniProt P00519)
- Sequence (P00519 whole entry): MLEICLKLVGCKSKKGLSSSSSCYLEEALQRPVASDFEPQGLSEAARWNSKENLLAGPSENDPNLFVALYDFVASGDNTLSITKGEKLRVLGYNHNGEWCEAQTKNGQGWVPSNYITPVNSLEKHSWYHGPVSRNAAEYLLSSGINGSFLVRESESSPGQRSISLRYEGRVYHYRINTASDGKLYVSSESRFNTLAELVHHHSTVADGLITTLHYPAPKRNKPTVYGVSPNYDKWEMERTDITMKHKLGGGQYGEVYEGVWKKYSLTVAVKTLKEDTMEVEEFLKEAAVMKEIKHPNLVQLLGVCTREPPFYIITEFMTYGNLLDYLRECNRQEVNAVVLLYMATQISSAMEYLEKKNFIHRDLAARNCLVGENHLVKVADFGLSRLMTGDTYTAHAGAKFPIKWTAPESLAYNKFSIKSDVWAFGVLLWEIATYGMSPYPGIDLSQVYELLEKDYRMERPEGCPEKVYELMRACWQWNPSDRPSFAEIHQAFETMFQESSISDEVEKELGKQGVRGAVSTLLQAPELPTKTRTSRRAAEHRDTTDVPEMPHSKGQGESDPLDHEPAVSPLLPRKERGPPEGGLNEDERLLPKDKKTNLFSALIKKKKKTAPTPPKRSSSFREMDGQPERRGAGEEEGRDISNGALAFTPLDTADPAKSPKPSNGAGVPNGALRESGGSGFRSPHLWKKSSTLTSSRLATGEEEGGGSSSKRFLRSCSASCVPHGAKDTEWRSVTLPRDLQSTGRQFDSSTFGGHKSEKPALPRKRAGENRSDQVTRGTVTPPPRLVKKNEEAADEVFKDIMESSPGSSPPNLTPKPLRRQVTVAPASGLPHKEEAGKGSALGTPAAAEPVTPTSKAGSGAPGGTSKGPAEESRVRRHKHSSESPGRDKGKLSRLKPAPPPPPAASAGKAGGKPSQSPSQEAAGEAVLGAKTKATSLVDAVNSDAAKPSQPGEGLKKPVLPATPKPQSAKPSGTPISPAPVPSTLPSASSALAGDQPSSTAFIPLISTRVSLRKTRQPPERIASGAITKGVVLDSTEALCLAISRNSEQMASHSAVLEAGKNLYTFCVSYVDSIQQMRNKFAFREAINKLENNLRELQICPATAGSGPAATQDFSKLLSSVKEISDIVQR
pIC50: −log10 of the molar value.
METRIC: pIC50

[[record]]
molecule = "N[C@@H](CCCN=CC1C(=O)Nc2ccccc21)C(=O)O (stereo partly specified)"
assayed_system = "Tyrosine-protein kinase ABL1 (Homo sapiens, UniProt P00519)"
result = "< 5.00"


====

pIC50: −log10 of the molar value.
pIC50 data for Hepatocyte growth factor receptor (Homo sapiens, UniProt P08581) follow.
METRIC: pIC50

[[record]]
compound = "N[C@@H](CCCN=CC1C(=O)Nc2ccccc21)C(=O)O (stereo partly drawn)"
result = "< 5.00"

[[record]]
compound = "N[C@@H](CCCCN=CC1C(=O)Nc2ccc(Br)cc21)C(=O)O (stereo partly drawn)"
result = "< 5.00"

[[record]]
compound = "N[C@@H](CCCCN=CC1C(=O)Nc2ccccc21)C(=O)O (stereo partly drawn)"
result = "< 5.00"

